B1: CPEB3 Ribozyme (parent)
chain: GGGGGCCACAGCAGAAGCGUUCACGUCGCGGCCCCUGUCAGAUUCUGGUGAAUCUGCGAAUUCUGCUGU

variants of: B1; experiment: self-cleavage, relative activity (ratio to wild type); higher = more cleavage; co-transcriptional
Entries and their self-cleavage

Use these answered entries as a reference point.
GGGGUCCACAGCAGCAGCGUUCACGUCGCGGCCCCUGUCAGAUUCUGGUGAAUCUGCGAAUUCUGCUGU [G5U A15C]    0.0532
GGGGGCCACAGCAGAAGCGUUCACGUCGGGGCCCCUGUCAGAUUCUGGUGAAUCUGCAAAUUCUGCUGU [C29G G58A]    0.327
GGGGGCCACAGCAGAAGCGUUCACGUCGCGGCCCCUGUCUGAUUCUGGUGAAUCUGCGAAUUCCGCUGU [A40U U64C]    0.388

For the variant GGGAGCCACAGCAGAAGCGUUCACGUCGCGGCCCCUGUCACAUUCUGGUGAAUCUGCGAAUUCUGCUGU [G4A G41C] , report self-cleavage. 0.341

Specify measured self-cleavage for GGGGGCCACAGCAGAAGCCUUCACUUCGCGGCCCCUGUCAGAUUCUGGUGAAUCUGCGAAUUCUGCUGU [G19C G25U] . 0.145

Give the reported value of self-cleavage for this record: GGGGGCCACAGCAGAAGCGUGCACGUCGCGGCCCCUGUAAGAUUCUGGUGAAUCUGCGAAUUCUGCUGU [U21G C39A] 0.396

Write down self-cleavage measured for item GGGGGACACAGCAGAAGCGUUCACGUCGCGGCCCCUGUCAGAUUCUGGUGAAUCUUCGAAUUCUGCUGU [C6A G56U] 0.44

Query self-cleavage for GGGGGCCUCAGCAGAAGCGUUCACGUCUCGGCCCCUGUCAGAUUCUGGUGAAUCUGCGAAUUCUGCUGU [A8U G28U] 0.0893
